The reported numbers originate from PubChem BioAssay (NCI).

assay: NCI Yeast Anticancer Drug Screen. Data for the mlh1 rad18 strain (AID 175); details: S. cerevisiae mlh1 rad18 strain growth inhibition; at 50.0 µM (retest, dose inferred, filed as 5.0)
The panel holds about 79,000 compounds, 15% with a hit somewhere; the sample as a whole holds those more often. Calls of active or inactive are those of the source. No stated cut-off is given here; in the data, active means growth inhibition above about 70%; inactive means the rest.
Pick from yes (1) = active, no (0) = inactive when you respond.

>  <MOLECULE>
Cn1ccc(=Nc2ccc(NC(=O)c3ccc(N=c4ccn(C)c5ccc([N+](=O)[O-])cc45)cc3)cc2)cc1

>  <LABEL>
yes (1)

$$$$
>  <MOLECULE>
CCOC(=O)c1[nH]c(C#N)c(C(=O)OCC)c1C

>  <LABEL>
no (0)

$$$$
>  <MOLECULE>
CCCC[n+]1c(/C=C\c2c(OC)cc(OC)cc2OC)ccc2ccccc21

>  <LABEL>
yes (1)

$$$$
>  <MOLECULE>
CCCCCCN(CCCCCC)CCCCCCCCCCCO

>  <LABEL>
yes (1)

$$$$
>  <MOLECULE>
CCCCCCCCCCCC[n+]1ccccc1 (tested in a mixture with another compound)

>  <LABEL>
yes (1)

$$$$
>  <MOLECULE>
CC(C)(C)c1ccc(CCO)cc1

>  <LABEL>
no (0)

$$$$
>  <MOLECULE>
CC1(C)OC2C(COC(c3ccccc3)(c3ccccc3)c3ccccc3)OC(c3c[nH]c4c(N)ncnc34)C2O1 (stereo unspecified)

>  <LABEL>
yes (1)

$$$$
>  <MOLECULE>
CCCCCCCCCCCCNCCCc1ccccc1

>  <LABEL>
yes (1)

$$$$

// outcome(item) with item = CCOc1ccc2c(c1)/C(=C\C=C\C1CC(C)C3CC(OCC)CCC3N1CC)CC(C)N2CC (stereo unspecified) yes (1)

// outcome(item) with item = CCC(C)(O)Cc1ccc(Cl)cc1 (stereo unspecified) no (0)
